Data origin: paper PMC4503722

Test system: SNU-C1
Assay: cells
Format: cell-based
Conditions: assay number 30
Basal_Viability ATP SNU-C1 IC50/EC50 overview
Give a bare numeral; the unit µM is implied.

[
  {
    "compound": "COc1cc(NCc2ccc3nc(N)nc(N)c3c2C)cc(OC)c1OC [NCGC00161419-05]",
    "unit-symbol": "µM",
    "Basal_Viability ATP SNU-C1 IC50/EC50": 5.1323
  },
  {
    "compound": "CN1CCC(Nc2ncc3ncnc(Nc4ccc(F)c(Cl)c4)c3n2)CC1 [NCGC00161422-04]",
    "unit-symbol": "µM",
    "Basal_Viability ATP SNU-C1 IC50/EC50": 11.9566
  },
  {
    "compound": "Cl.O=C1[C@H]2CCCC[C@H]2C(=O)N1CCCCN1CCN(c2nsc3ccccc23)CC1 [NCGC00164567-02]",
    "unit-symbol": "µM",
    "Basal_Viability ATP SNU-C1 IC50/EC50": 9.3713
  },
  {
    "compound": "O=c1c(C2CC(c3ccc(-c4ccc(Br)cc4)cc3)Cc3ccccc32)c(O)sc2ccccc12 (stereo not drawn) [NCGC00262959-01]",
    "unit-symbol": "µM",
    "Basal_Viability ATP SNU-C1 IC50/EC50": 0.2516
  }
]

Okay, next one:
Request the reported Basal_Viability ATP SNU-C1 IC50/EC50 associated with CC(C)C[C@H](NC(=O)[C@H](CCc1ccccc1)NC(=O)CN1CCOCC1)C(=O)N[C@@H](Cc1ccccc1)C(=O)N[C@@H](CC(C)C)C(=O)[C@@]1(C)CO1 [NCGC00249613-02]
0.00147

###

Tested on: HCT116
Test: cells
Format: cell-based
Details: basal; HCT116; read-out: Basal_Viability ATP HCT116
experimental-readout: pIC50
# log scale: pIC50 equals minus log10 of the concentration in mol/L

[
  {
    "structure-string": "N=C(N)NN=C(/C=C/c1ccc([N+](=O)[O-])o1)/C=C/c1ccc([N+](=O)[O-])o1",
    "experimental-result": 6.87
  }
]

Request the reported pIC50 associated with CCN(CC)CCNc1ccc(CO)c2sc3ccccc3c(=O)c12
5.07

###

Tested on: endothelial tube formation in co-cultures of ECFCs and ADSCs treated with VEGF
Assay: cells
Assay type: cell-based, human
Conditions: Homo sapiens, read-out: Anti-Angio IC50
pIC50 overview
# log scale: pIC50 equals minus log10 of the concentration in mol/L

Request the reported pIC50 associated with COc1cc(NCc2ccc3nc(N)nc(N)c3c2C)cc(OC)c1OC [trimetrexate, reference compound]
5.36

Request the reported pIC50 associated with O=C(NOCC1CC1)c1ccc(F)c(F)c1Nc1ccc(I)cc1Cl [PD-184352, reference compound]
6.43

###

EC50 overview
Test system: INS-1E cells
Assay: cells
Type: cell-based, rat
Settings: Rattus norvegicus; IC50 / EC50; INS-1E; read-out: Insulin Secretion
Where a name gives a salt, the structure may show the parent alone. *1 amine or outer side, *2 acyl side, *3 side chain or, on linkers, in order; H or OH if unused. Where a SMILES comes first, the peptide text is derived from it. Bridges are numbered along the chain shown (N, C = ends). Roman numbers before positions name the chains, in order. [ ]: non-standard residue; d: D form. Actinocin(9to1) = Cc1c2oc3c(C)ccc(C(=O)[*:1])c3nc-2c(C(=O)[*:2])c(N)c1=O; NMeV = CN[C@H](C(=O)O)C(C)C; Sar = CNCC(=O)O

Example compounds with recorded EC50:
[
  {
    "compound": "CCN(CC)CCCC(C)Nc1c2ccc(Cl)cc2nc2ccc(OC)cc12 (centres unmarked) [Mepacrine]",
    "EC50": "4.07 µM"
  },
  {
    "compound": "CC(C)OC(=O)OCOP(=O)(CO[C@H](C)Cn1cnc2c(N)ncnc21)OCOC(=O)OC(C)C [Tenofovir disoproxil fumarate]",
    "EC50": "> 10 µM"
  },
  {
    "compound": "Cc1c2oc3c(C)ccc(C(=O)N[C@@H]4C(=O)N[C@H](C(C)C)C(=O)N5CCC[C@H]5C(=O)N(C)CC(=O)N(C)[C@@H](C(C)C)C(=O)O[C@@H]4C)c3nc-2c(C(=O)N[C@@H]2C(=O)N[C@H](C(C)C)C(=O)N3CCC[C@H]3C(=O)N(C)CC(=O)N(C)[C@@H](C(C)C)C(=O)O[C@@H]2C)c(N)c1=O [Dactinomycin] (I: T[dV]P[Sar][NMeV] / II: T[dV]P[Sar][NMeV]; ester I:1-I:C, II:1-II:C; linker I:N-II:N via Actinocin(9to1))",
    "EC50": "> 10 µM"
  }
]

Request the reported EC50 associated with CN(C)CCOC(c1ccccc1)c1ccc(Br)cc1 (centres unmarked) [Bromazine]
2.77 µM

Request the reported EC50 associated with CCCCCCCCCCCCCCCC[N+](C)(C)Cc1ccccc1 [Cetalkonium chloride]
> 10 µM
